B1: TPR t1 (parent)
chain: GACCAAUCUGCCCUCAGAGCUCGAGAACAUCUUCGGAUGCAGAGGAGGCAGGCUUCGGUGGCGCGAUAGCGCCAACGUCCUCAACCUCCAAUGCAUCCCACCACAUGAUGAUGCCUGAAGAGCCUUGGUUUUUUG

Variants of: B1
method summary: polymerase ribozyme fitness, log enrichment relative to wild type (log ratio); higher = more active; in vitro selection for triplet polymerase activity
Please note: class 1 applies when polymerase ribozyme fitness (log ratio) is -3 or greater, and class 0 applies otherwise.

mutation="A6U C20U U21G G69C A121U" assigned_label="class 1"
mutation="U9C C22U A46C A103G G113C" assigned_label="class 0"
mutation="C8A U54G A111U U116G A119U U130G" assigned_label="class 0"
mutation="A18C U112C" assigned_label="class 1"
mutation="U14G U130A" assigned_label="class 0"
mutation="G69U G127A U131A" assigned_label="class 1"
mutation="A2U G110U" assigned_label="class 1"
mutation="C72G C94G G113A G122U" assigned_label="class 0"
mutation="C15A U21A U78A G93U" assigned_label="class 1"
mutation="G71C G113A G128A" assigned_label="class 0"
mutation="A46U C88A" assigned_label="class 1"
mutation="C88A U106A U109A U126A U131G" assigned_label="class 0"
mutation="A27C U55G G57C A111U G122A" assigned_label="class 0"
mutation="A46C G47A A50G U129A" assigned_label="class 0"
mutation="G61U A83C" assigned_label="class 1"
mutation="U87A U106A G113A" assigned_label="class 1"
mutation="C11G A84U" assigned_label="class 1"
mutation="C40G C79U C101U G113U" assigned_label="class 0"
mutation="A50C C97G" assigned_label="class 0"
mutation="C12G U54C G61C" assigned_label="class 1"
mutation="C11U A37U G45A" assigned_label="class 1"
mutation="G19A U32A A84U" assigned_label="class 0"
mutation="G69C G77U U87A G117U" assigned_label="class 0"
mutation="C13U A100U C101U C104U A121C" assigned_label="class 1"
mutation="C11G A16U G58C A83C C89U U131A" assigned_label="class 0"
mutation="U14C A46C C79U U106C" assigned_label="class 0"
mutation="G17U A29G A37U U112G" assigned_label="class 0"
mutation="U7G C98U" assigned_label="class 1"
mutation="U78G G120A" assigned_label="class 1"
mutation="C8U C28U U116A" assigned_label="class 0"
mutation="G47U C53G A105G" assigned_label="class 0"
mutation="G44C A50G A111U C123A G135U" assigned_label="class 0"
mutation="G45C G71A C73U C86A U109A" assigned_label="class 0"
mutation="C3U C34A C53A C79U C88U C97U" assigned_label="class 1"
mutation="G42U C72U U125A" assigned_label="class 1"
mutation="A6C C76G U81C C85U C99U" assigned_label="class 0"
mutation="A18U G57U A100C G120C" assigned_label="class 0"
mutation="G61A G128U" assigned_label="class 1"
mutation="A50U G63A C124G" assigned_label="class 1"
